# system_under_test: Serine/threonine-protein kinase 33 (Homo sapiens)
# assay: STK33 kinase inhibitors, primary screen, biochemical, luminescence, ADP-Glo, MBP substrate (AID 2322)
# condition_label: at 12.5 µM
In all, about 27,000 compounds went through this assay and about 120 (0.44%) were called active. Rule as the data show it: active = inhibition above about 20%; inconclusive = no clear call, values can overlap the other calls; inactive = below that. This excerpt belongs to a sample that is enriched for actives.
Field 'call' accepts active, inactive

Exercise: Each compound tested received a call. Report the one for COc1cc2c(cc1NC(=O)CN(C)S(=O)(=O)c1ccc(Br)cc1)oc1ccccc12 .
Solution: inactive

Exercise: # fetch the recorded call for C[C@H](CO)N1C[C@H](C)[C@H](CN(C)C)Oc2ncc(/C=C/c3ccccc3)cc2C1=O here
Solution: inactive

Exercise: What classification did Cc1noc(C)c1S(=O)(=O)Nc1ccc2c(c1)CC(=O)N([C@H](C)CO)C[C@@H](C)[C@@H](CN(C)Cc1ccc(C(=O)O)cc1)O2 end up with in this test?
Solution: inactive

Exercise: Hey, what did the test say about CC(C)[C@H](CO)Nc1nc(Nc2cc(N)cc(Cl)c2)c2ncn(C(C)C)c2n1 ?
Solution: active

Exercise: Called result for COC(=O)c1cc(NC(=O)Cc2ccccc2[N+](=O)[O-])ccc1Cl
Solution: inactive

Exercise: Recorded test outcome, item O=C(c1cc([N+](=O)[O-])ccc1NCc1cccnc1)N1CCOCC1
Solution: inactive

Exercise: Query: recorded result category for C[C@@H]1CN([C@H](C)CO)C(=O)Cc2cc(NS(C)(=O)=O)ccc2O[C@@H]1CN(C)C(=O)Nc1ccc2c(c1)OCO2 in this test
Solution: inactive

Exercise: Entry CCCn1c2ccccc2c2nnc(SCC(=O)Nc3cccc4ccccc34)nc21 : call = ?
Solution: inactive

Exercise: Could you kindly confirm the outcome this assay logged for CCn1c(SCC(=O)Nc2ccc3c(c2)OCCO3)nnc1-c1ccncc1 ?
Solution: inactive

Exercise: Assay result, entry CCOC(=O)C(C)Sc1ncnc2c1sc1nc(N3CCOCC3)c3c(c12)CC(C)(C)OC3 (stereo not drawn) — outcome?
Solution: inactive

Exercise: GET /call?item= CS(=O)(=O)N(CC(=O)Nc1ccc2ccccc2c1)c1cc(Cl)c(Cl)cc1Cl returns the recorded outcome of this test.
Solution: inactive

Exercise: Kindly provide the recorded test outcome for the following compound: O=C(Oc1ccccc1)c1cccc(COC(=O)c2cc3ccccc3oc2=O)c1
Solution: inactive

Exercise: Would you mind telling me which call this test gave COc1ccccc1NC(=O)CCC(=O)c1ccc(C)cc1 ?
Solution: inactive

Exercise: Called result for COc1cccc(-c2cnc3c(c2)C(=O)N([C@H](C)CO)C[C@H](C)[C@H](CN(C)Cc2ccncc2)O3)c1
Solution: inactive

Exercise: Write down the call the test reported for this compound. Item: CN(CC(=O)Nc1ccc(C#N)cc1)S(=O)(=O)c1ccc(Cl)cc1
Solution: inactive

Exercise: Recorded test call requested for CS(=O)(=O)CCC(C(=O)N1CCOCC1)N1C(=O)c2ccc(Br)cc2C1=O (stereo not drawn)
Solution: inactive

Exercise: // return assay outcome for COc1cc(OC)c(NC(=O)CSc2nnc(-c3ccncc3)n2-c2ccccc2)cc1Cl
Solution: inactive

Exercise: Which outcome was entered for the compound O=C(CCn1nc(-c2ccc(Cl)cc2)c2ccccc2c1=O)Nc1cccc(C(F)(F)F)c1 in this test?
Solution: inactive

Exercise: Hi, sorry to bother you, what did the test record for Cc1ccc(N(CC(=O)Nc2ccccc2Sc2ccccc2)S(C)(=O)=O)c(C)c1 ?
Solution: inactive

Exercise: Write down the call the test reported for this compound. Item: O=C(CSc1nc2ccc(NC(=O)c3ccccc3Cl)cc2s1)Nc1ccc(F)cc1
Solution: inactive

Exercise: Lab log entry: Cc1ccc(-n2c(SCC(=O)Nc3cccc(C)c3C)nc3ccccc3c2=O)cc1 — outcome as called in the assay?
Solution: inactive

Exercise: Please share the test call associated with Cc1ccc(S(=O)(=O)N(C)C[C@@H]2Oc3ccc(NC(=O)Nc4ccc(F)cc4)cc3C(=O)N([C@H](C)CO)C[C@@H]2C)cc1 .
Solution: inactive

Exercise: Hi, do you know how CCOc1ccc(NC(=O)CSc2nccc(C)n2)cc1 came out in this test?
Solution: inactive

Exercise: Hi team, can someone confirm the assay call for O=c1[nH]nc(-c2ccc(NCc3cccnc3)c([N+](=O)[O-])c2)c2ccccc12 ?
Solution: inactive

Exercise: Which outcome was entered for the compound N#Cc1c(NC(=O)C2CC(Cl)=CCC2C(=O)O)sc2c1CCC2 (stereo not drawn) in this test?
Solution: inactive

Exercise: Can you look up the reported call for C[C@H](CO)N1C[C@H](C)[C@H](CN(C)S(=O)(=O)c2cccc(F)c2)OCc2cnnn2CCCC1=O for me?
Solution: inactive

Exercise: So what was the verdict on COc1ccc(NC(=O)CN2CCN(S(=O)(=O)c3ccc4ccccc4c3)CC2)cc1 in this test?
Solution: inactive

Exercise: Query: recorded result category for CCOC(=O)CCSc1nnc2c3ccccc3n(C)c2n1 in this test
Solution: inactive

Exercise: State the result this test recorded for O=C1c2ccccc2C(=O)N1CCCc1nc2ccccc2c(=O)n1-c1nc2ccccc2s1 .
Solution: inactive

Exercise: Answer briefly: the call reported for COc1ccc(-c2nnc(SCC(=O)O)n2-c2ccccc2)cc1OC in this assay.
Solution: inactive

Exercise: Fill in: this test's call for O=C(CSc1nnc(-c2ccccn2)n1-c1ccccc1)Nc1ccc2cn[nH]c2c1 is ___
Solution: inactive

Exercise: Hi team, can someone confirm the assay call for CCc1c(O)nc(SCC(=O)Nc2ccc(OC)cc2)n(-c2ccccc2C)c1=O ?
Solution: inactive

Exercise: Record lookup: outcome of this test for O=C(CC(NC1CCCC1)C(=O)O)Nc1cccc(Cl)c1 (stereo not drawn) ?
Solution: inactive

Exercise: Give the logged outcome of this assay for the following compound: COc1cc(OC)c(C2=NOC(C(=O)Nc3cccnc3)C2)cc1Cl (stereo not drawn)
Solution: inactive

Exercise: Status in this test for CC1(C)CC[C@]2(C(=O)O)CC[C@]3(C)C(=CCC4[C@@]5(C)CC[C@H](OC6O[C@H](CO)[C@@H](O)[C@H](O[C@@H]7O[C@H](CO)[C@@H](O)[C@H](O)[C@H]7O)[C@H]6O)C(C)(C)C5CC[C@]43C)[C@@H]2C1 (stereo partly drawn) ?
Solution: inactive

Exercise: Fill in: this test's call for COc1ccc(C)cc1S(=O)(=O)N1CCCC(C(=O)Nc2ccccc2C(F)(F)F)C1 (stereo not drawn) is ___
Solution: inactive

Exercise: For Cc1ccccc1OCC(=O)Nc1cc(-c2nc3ccccc3s2)c(Cl)cc1Cl , what call appears in the results of this test?
Solution: inactive

Exercise: Query: recorded result category for CN(CC(=O)Nc1ccc(F)cc1)S(=O)(=O)c1ccccc1 in this test
Solution: inactive

This collection of values is drawn from PubChem BioAssay AID2322.
